Numbers sourced from patent US20150284477.

# Target system: T1, GGG-COOH
# T1 chain: GGG
Assay metric: log10 of Km GGG-COOH (log10 of the value in µM)

Protein	Reading
D160N/K190E/K196T (clone 4.2) (protein) MQAKPQIPKDKSKVAGYIEIPDADIKEPVYPGPATPEQLNRGVSFAEENESLDDQNISIAGHTFIDRPNYQFTNLKAAKKGSMVYFKVGNETRKYKMTSIRNVKPTDVEVLDEQKGKDKQLTLITCDDYNEETGVWETRKIFVATEVKLEHHHHHH	3.08
P94S/D160N/D165A/K196T (protein) MQAKPQIPKDKSKVAGYIEIPDADIKEPVYPGPATSEQLNRGVSFAEENESLDDQNISIAGHTFIDRPNYQFTNLKAAKKGSMVYFKVGNETRKYKMTSIRNVKPTAVEVLDEQKGKDKQLTLITCDDYNEKTGVWETRKIFVATEVKLEHHHHHH	3.68
P94S/D165A (clone 4.3) (protein) MQAKPQIPKDKSKVAGYIEIPDADIKEPVYPGPATSEQLNRGVSFAEENESLDDQNISIAGHTFIDRPNYQFTNLKAAKKGSMVYFKVGNETRKYKMTSIRDVKPTAVEVLDEQKGKDKQLTLITCDDYNEKTGVWEKRKIFVATEVKLEHHHHHH	3.23
srtA P94S (protein) MQAKPQIPKDKSKVAGYIEIPDADIKEPVYPGPATSEQLNRGVSFAEENESLDDQNISIAGHTFIDRPNYQFTNLKAAKKGSMVYFKVGNETRKYKMTSIRDVKPTDVEVLDEQKGKDKQLTLITCDDYNEKTGVWEKRKIFVATEVKLEHHHHHH	2.81
srtA D165A (protein) MQAKPQIPKDKSKVAGYIEIPDADIKEPVYPGPATPEQLNRGVSFAEENESLDDQNISIAGHTFIDRPNYQFTNLKAAKKGSMVYFKVGNETRKYKMTSIRDVKPTAVEVLDEQKGKDKQLTLITCDDYNEKTGVWEKRKIFVATEVKLEHHHHHH	3.00
srtA D160N (protein) MQAKPQIPKDKSKVAGYIEIPDADIKEPVYPGPATPEQLNRGVSFAEENESLDDQNISIAGHTFIDRPNYQFTNLKAAKKGSMVYFKVGNETRKYKMTSIRNVKPTDVEVLDEQKGKDKQLTLITCDDYNEKTGVWEKRKIFVATEVKLEHHHHHH	2.52
P94S/D160N/D165A (protein) MQAKPQIPKDKSKVAGYIEIPDADIKEPVYPGPATSEQLNRGVSFAEENESLDDQNISIAGHTFIDRPNYQFTNLKAAKKGSMVYFKVGNETRKYKMTSIRNVKPTAVEVLDEQKGKDKQLTLITCDDYNEKTGVWEKRKIFVATEVKLEHHHHHH	3.24
